System: Bacillus subtilis
procedureSummary: Antibacterial activity against Bacillus subtilis ATCC 9372 after 24 hrs by broth microdilution method
Assay type: functional
assayConditions: ATCC 9372, 24 h
Each item that follows carries a reported MIC.
Only the number, expressed in mg/L, is required.

The examples below pair each entry with its known result.
INSERT INTO assay_data (compound, observationtype, obsvalue) VALUES
  ('CCCCC(CC)COc1cccc(-c2n[nH]c(=O)o2)c1 (racemic)', 'MIC', 4),
  ('Clc1cccc(COc2cccc(-c3c[nH]nn3)c2)c1', 'MIC', 16),
  ('CCCCC(CC)COc1ccccc1-c1c[nH]nn1 (stereo not drawn)', 'MIC', 8),
  ('CCCCC(CC)COc1cccc(-c2cnnn2C)c1 (stereo not drawn)', 'MIC', 64),
  ('CCCCC(CC)COc1cccc(-c2nnco2)c1 (racemic)', 'MIC', 16);

Look up MIC: NC(=O)c1c(F)ccc(OCc2nc3cc(Cl)cnc3s2)c1F
0.25

What measured MIC goes with CCCCC(CC)COc1ccc(F)c(-c2c[nH]nn2)c1F (racemic) ?
4

# lookup: MIC of CCCCC(CC)COc1cccc(C(N)=O)c1 (racemic)
16

# query: MIC of entry CCCCC(CC)COc1cccc(-c2cn(C)nn2)c1 (stereo not drawn)
32

Quick check: MIC of CCCCCCCCOc1cccc(-c2c[nH]nn2)c1 ?
2

Reported MIC, compound Cc1cccc(COc2cccc(-c3c[nH]nn3)c2)c1 : ____
32

Given the compound Cc1ccc(COc2ccc(F)c(-c3c[nH]nn3)c2F)cc1 , what is its reported MIC?
32

Could you share which MIC value was measured for Cc1cccc(COc2ccc(F)c(-c3c[nH]nn3)c2F)c1 ?
32

May I ask what MIC has been recorded for CCCCC(CC)COc1ccc(F)c(C(N)=O)c1F (stereo not drawn) ?
2

What value of MIC has been reported for the following compound? CCCCC(CC)COc1cccc(Cn2cncn2)c1 (racemic)
16

Which MIC reading was recorded for the compound CCCCC(CC)COc1cccc(-c2c[nH]nn2)c1 (racemic) ?
2

Request the reported MIC associated with Fc1ccc(OCc2cccc(Cl)c2)c(F)c1-c1c[nH]nn1
16

Requested field: MIC. Item: CCCCC(CC)COc1ccc(-c2c[nH]nn2)cc1 (stereo not drawn)
2
